Data origin, for the record: patent US9278914B2

# Test system: castrated (ORX) male Sprague-Dawley rats
# Protocol: Anabolic and androgenic activity in castrated (ORX) male rats, daily oral gavage for fourteen days
# Assay type: in vivo, rat
# Settings: ORX rats; 0.1 mg/day oral
# Procedure: Male Sprague-Dawley rats weighing approximately 200 g were purchased from Harlan Bioproducts for Science (Indianapolis, Ind.). […] In addition, ventral prostate, seminal vesicles, and levator ani muscle were removed, individually weighed, normalized to body weight, and expressed as a percentage of intact control. […] Ventral prostate and seminal vesicle weights were evaluated as a measure of androgenic activity, whereas levator ani muscle weight was evaluated as a measure of anabolic activity. […]
Endpoint label: Prostate weight

Take a look at these entries with their results.
Prompt: For the compound C[C@](O)(COc1ccc(C#N)cc1)C(=O)Nc1ccc(C#N)c(C(F)(F)F)c1 , what Prostate weight is on record?
Completion: 51%±19%

Prompt: Consider next the compound C[C@](O)(COc1ccc(C#N)c(F)c1)C(=O)Nc1ccc(C#N)c(C(F)(F)F)c1 in the same way.
Completion: 50%±11%

Prompt: Consider next the compound C[C@](O)(COc1ccc(C#N)cc1)C(=O)Nc1ccc(C#N)c(Cl)c1 in the same way.
Completion: 43%±15%

# input for lookup
Prompt: For the compound C[C@](O)(COc1ccc(Cl)c(F)c1)C(=O)Nc1ccc(C#N)c(C(F)(F)F)c1 , what Prostate weight is on record?
Completion: 39%±6%
